Data origin, for the record: PubChem BioAssay AID1996

# condition-summary: buffer; pH 7.4; 200.0 µM
Items are presented alongside their recorded solubility kinetic.

Challenge: Look at this molecule and give its reported solubility kinetic. `O=C(Nc1cccs1)Nc1cccnc1Cl`
Response given: > 0.0381 mg/mL

Challenge: Look at this molecule and give its reported solubility kinetic. Cc1ccccc1Nc1nnc(SCC(=O)NCC2CCCO2)s1 (configuration not stated)
Response given: > 0.0547 mg/mL

Challenge: Look at this molecule and give its reported solubility kinetic. `Cc1cc(NS(=O)(=O)c2ccc(NC(=O)c3ccc(F)cc3)cc2)nc(C)n1`
Response given: > 0.0601 mg/mL

Challenge: Look at this molecule and give its reported solubility kinetic. CCC1CCCCN1C(=O)/C=C/c1ccc2c(c1)OCO2 (configuration not stated)
Response given: > 0.0431 mg/mL

Challenge: Look at this molecule and give its reported solubility kinetic. `CN(C)c1nc(Nc2ccc(F)cc2)nc(Oc2ccc(F)cc2)n1`
Response given: < 0.0001 mg/mL

Challenge: Look at this molecule and give its reported solubility kinetic. `C(#Cc1ccccc1)CN1CCOCC1.Cl`
Response given: > 0.0357 mg/mL

Challenge: Look at this molecule and give its reported solubility kinetic. `CCCNC(=O)CN1C(=O)c2ccccc2Sc2ncccc21`
Response given: > 0.0491 mg/mL
